Source: ChEMBL document CHEMBL4433229

- Assay details: Binding affinity to d(CTG) T-T 3 DNA sequence (unknown origin) assessed as equilibrium dissociation constant by isothermal titration method
Measured endpoint: pKd
Give bare numbers, as −log10 of the molar value.

For the compound shown here, Nc1nc2nc(n1)NCCCNc1c3ccccc3nc3c(cccc13)C(=O)NCCCN2 , give the reported pKd.
4.82

----------
- Assay details: Binding affinity to d(CTG)2 DNA sequence (unknown origin) assessed as equilibrium dissociation constant by isothermal titration method
pKd: −log10 of the molar value.
Measured endpoint: pKd

For the compound shown here, COc1ccc2nc3cc(Cl)ccc3c(NCCCCNc3nc(N)nc(N)n3)c2c1 , give the reported pKd.
6.40 to 6.52
